- run_description: resazurin metabolic signal in A549 cells – cell-based, resazurin fluorescence, 24 h, PK04 Diversity Set, profiling panel (AID 1171); further: test concentration not given here
- test_settings: A549 viability, higher = more signal, called active from +8 up or from −8 down
result_type: z-score
Simply state the number, no unit and no words.

Find the recorded z-score belonging to [N-]=[N+]=NCc1ccccc1[C@H]1OC(c2ccc(OCCCO)cc2)=N[C@@]1(Cc1ccccc1)C(=O)O and report it. 0.932

Find the recorded z-score belonging to COC(=O)[C@@]1(Cc2ccc(F)cc2)[C@H]2c3cc(C(=O)N4CCCC4)n(Cc4ccc(Cl)c(C(F)(F)F)c4)c3C[C@H]2CN1C(=O)c1ccccc1 and report it. -1.53

Find the recorded z-score belonging to O=C1OCCC/C=C\[C@H]2OC34C=CCN(Cn5nnc6ccccc65)C(=O)[C@H]3N(CCCO)C(=O)[C@@H]4C12 (some centres not stated) and report it. 0.651

Find the recorded z-score belonging to [N-]=[N+]=NCc1ccccc1[C@@H]1OC(c2ccc(OCCCO)cc2)=N[C@]1(Cc1ccccc1)C(=O)O and report it. 0.45

Find the recorded z-score belonging to COC(=O)[C@@]1(Cc2ccc(F)cc2)[C@H]2c3cc(C(=O)N(C)C)n(CCc4c[nH]c5ccc(OC)cc45)c3C[C@H]2CN1C(=O)c1ccccc1 and report it. -0.752

Find the recorded z-score belonging to C=CCC(OC(C)=O)[C@@H]1[C@@H](N(Cc2cc3ccccc3o2)C(=O)c2ccc(-c3ccccc3)cc2)c2cc(OCCCO)ccc2N1C(=O)Cc1ccc2ccccc2c1 (some centres not stated) and report it. 0.483

Find the recorded z-score belonging to COCCn1c(C(=O)N2CCCC2)cc2c1C[C@H]1CN(C(=O)c3ccccc3)[C@@](Cc3ccc(OC)cc3)(C(=O)OC)[C@@H]21 and report it. -0.253

###

- tested_target: Dickkopf-related protein 1 (Homo sapiens) (UniProt O94907)
- Sequence (O94907 whole entry, looked up): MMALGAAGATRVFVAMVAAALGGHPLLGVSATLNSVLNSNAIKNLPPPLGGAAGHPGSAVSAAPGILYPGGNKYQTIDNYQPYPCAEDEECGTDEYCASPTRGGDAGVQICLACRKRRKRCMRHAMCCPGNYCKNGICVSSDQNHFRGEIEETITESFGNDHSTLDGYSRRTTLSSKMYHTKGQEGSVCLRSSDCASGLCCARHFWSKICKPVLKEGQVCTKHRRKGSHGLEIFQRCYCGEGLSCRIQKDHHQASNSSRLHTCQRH
- run_description: small molecules binding DKK1 protein – biochemical, small-molecule microarray, 635 nm fluorescence scan, primary screen (AID 1106);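 further: score merges emission near 667 nm with signal to noise over three replicate slides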
- test_settings: higher = more signal
result_type: composite z-score
Simply state the number, no unit and no words.

Find the recorded composite z-score belonging to O=C1C2C=CC(C(O)C3CC=CCC3)N(n3cnnc3)C2C(=O)N1Cc1ccccc1 (centres undefined) and report it. -0.746

Find the recorded composite z-score belonging to CCCCN1CC=CC23O[C@@H]4C=CCCOC(=O)C4[C@H]2C(=O)N(CCCO)[C@@H]3C1=O (some centres undefined) and report it. -0.0604

Find the recorded composite z-score belonging to COCCOC(=O)N1C(=O)[C@@]2(c3cc(C#CC4(O)CCCCCC4)ccc31)[C@H](c1ccc(O)cc1)N1[C@H](c3ccccc3)[C@H](c3ccccc3)OC(=O)[C@H]1[C@@H]2C(=O)N1CCc2cc(OC)c(OC)cc2C1 and report it. -0.591

Find the recorded composite z-score belonging to CCCNC(=O)[C@@]1(C)c2ccccc2C(=O)N(C(C)C)[C@H]1c1ccc(CO)cc1 and report it. -0.612

###

- tested_target: Concanavalin-A (Canavalia ensiformis) (UniProt P02866)
- Sequence (P02866 whole entry, looked up): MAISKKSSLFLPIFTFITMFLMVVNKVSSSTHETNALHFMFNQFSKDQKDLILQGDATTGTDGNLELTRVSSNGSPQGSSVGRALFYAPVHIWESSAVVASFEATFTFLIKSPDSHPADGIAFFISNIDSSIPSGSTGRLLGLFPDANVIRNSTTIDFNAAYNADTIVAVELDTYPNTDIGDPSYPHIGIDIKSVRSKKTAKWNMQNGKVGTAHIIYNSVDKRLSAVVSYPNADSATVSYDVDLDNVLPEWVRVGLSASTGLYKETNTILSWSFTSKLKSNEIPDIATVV
- run_description: compounds binding concanavalin A lectin – biochemical, small-molecule microarray, Alexa647 label, 635 nm, artefact control for SMM control protein annotation, primary screen (AID 1127);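 further: z combines 667 nm emission intensity with signal-to-noise across three replicate slides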
- test_settings: ConA-A647 binding fluorescence, higher = more signal
Record form. Attribute: composite z-score. Fill in for each entry.
Simply state the number, no unit and no words.

Find the recorded composite z-score belonging to CCCC[C@@H]1C[C@H]1[C@@H](NC(=O)c1ccccc1)c1ccccc1 and report it. -0.482

Find the recorded composite z-score belonging to CCCCN1CC=CC23O[C@@H]4C=CCCOC(=O)C4[C@H]2C(=O)N(CCCO)[C@@H]3C1=O (some centres undefined) and report it. -1.59

Find the recorded composite z-score belonging to COc1ccc([Si](C)(C)[C@H]2[C@H](CC(=O)N3CCC[C@H]3CO)O[C@@]3(C(=O)N(c4ccccc4)c4ccccc43)[C@@H]2C)cc1 and report it. 0.493

Find the recorded composite z-score belonging to COCCOC(=O)N1C(=O)[C@@]2(c3cc(C#Cc4ccc(OC)cc4)ccc31)[C@H](c1ccc(OCCO)cc1)N1[C@H](c3ccccc3)[C@H](c3ccccc3)OC(=O)[C@H]1[C@@H]2C(=O)N1CCc2cc(OC)c(OC)cc2C1 and report it. 0.843

Find the recorded composite z-score belonging to C=C(CCCC)/C(=C/C[C@@H](OC(=O)c1ccncc1)c1ccc(CO)o1)c1cc(C(=O)OC)ccc1OC and report it. 1.15

Find the recorded composite z-score belonging to C=CCC(OC(C)=O)[C@@H]1[C@@H](N(Cc2cc3ccccc3o2)C(=O)c2cccc3ccccc23)c2cc(OCCCO)ccc2N1C(=O)Cc1ccc(OC)cc1 (some centres undefined) and report it. -0.162

Find the recorded composite z-score belonging to C=C(C(=O)CC[C@@H](OC(=O)c1cccnc1)c1ccc(CO)o1)C(C)C and report it. 0.383

Find the recorded composite z-score belonging to C=C(C(=O)CC[C@@H](OC(C)=O)c1ccc(OCCO)cc1)C(C)C and report it. 0.187

Find the recorded composite z-score belonging to CC1CC/C=C\[C@H]2OC34C=CCN(Cn5nnc6ccccc65)C(=O)[C@H]3N(CCCO)C(=O)[C@@H]4C2C(=O)O1 (some centres undefined) and report it. -0.668

Find the recorded composite z-score belonging to C=CCN1C(=O)[C@]2(COC(c3ccc(OCCCO)cc3)=N2)Cc2ccccc21 and report it. 0.953

Find the recorded composite z-score belonging to OCCCc1cc[n+](Cc2cccc(OC(F)(F)F)c2)cc1 and report it. 1.09

Find the recorded composite z-score belonging to C=CCNC(=O)[C@H]1[C@@H]2C(=O)O[C@@H](c3ccccc3)[C@@H](c3ccccc3)N2[C@@H](c2ccc(OCCO)cc2)[C@]12C(=O)N(C(=O)OCCOC)c1ccc(C#CC3(O)CCCCCC3)cc12 and report it. 1.07

Find the recorded composite z-score belonging to C[C@]1(C(=O)NCC(F)(F)F)c2ccccc2C(=O)N(Cc2cc(F)cc(C(F)(F)F)c2)[C@H]1c1ccc(CO)cc1 and report it. 0.247

Find the recorded composite z-score belonging to C#C[C@H](O[Si](C#CCCCCCC)(C(C)C)C(C)C)c1ccccc1 and report it. -0.0042

Find the recorded composite z-score belonging to COCCOC(=O)N1C(=O)[C@@]2(c3ccccc31)[C@H](C(=O)N1CCCCCCC1)[C@H]1C(=O)O[C@H](c3ccccc3)[C@H](c3ccccc3)N1[C@@H]2c1ccccc1OCCO and report it. 1.2

Find the recorded composite z-score belonging to CCCNC(=O)[C@@]1(C)c2ccccc2C(=O)N(Cc2cc(C(F)(F)F)cc(C(F)(F)F)c2)[C@H]1c1ccc(CO)cc1 and report it. -0.082

Find the recorded composite z-score belonging to O=C1O[C@@H](c2ccccc2)[C@@H](c2ccccc2)N2[C@@H](c3ccc(O)cc3)[C@]3(C(=O)Nc4ccccc43)[C@@H](C(=O)N3CCCCCCC3)[C@H]12 and report it. 1.17

Find the recorded composite z-score belonging to CN(C)CCCN1C(=O)[C@@]2(c3ccc([N+](=O)[O-])cc3)CC(=O)N(C3CCCCC3)[C@@H]2c2ccc(CO)cc21 and report it. 0.209

Find the recorded composite z-score belonging to C=CC[C@]1(C(=O)NCCN2CCOCC2)N=C(c2ccc(OCCCO)cc2)O[C@H]1c1ccccc1N=[N+]=[N-] and report it. 0.563

Find the recorded composite z-score belonging to O=C1OCCC=C[C@H]2OC34C=CCN(CCN5CCOCC5)C(=O)[C@H]3N(CCO)C(=O)[C@@H]4C12 (some centres undefined) and report it. -0.916

Find the recorded composite z-score belonging to COC(=O)c1c2oc(c1C(=O)OC)C(=O)N[C@H](Cc1ccccc1)Cn1nncc1C1(CCCCC1)NC(=O)N[C@H](CO)CC2 and report it. 0.0053

Find the recorded composite z-score belonging to O=C(NCC(O)CO)[C@@]1(Cc2ccccc2)COC(c2ccc(OCCCO)cc2)=N1 (some centres undefined) and report it. -1.4

Find the recorded composite z-score belonging to Cc1ccc(F)cc1S(=O)(=O)N[C@@H]1CCN(Cc2ccc(C(F)(F)F)cc2)C1 and report it. -0.628

Find the recorded composite z-score belonging to CO[C@H]1O[C@H](CO)[C@@H](OC(=O)Nc2ccc(C(F)(F)F)cc2)[C@H](OC(=O)Nc2ccccc2)[C@@H]1OC(=O)Nc1ccccc1 and report it. 1.16

Find the recorded composite z-score belonging to COc1ccc(C#Cc2ccc3c(c2)[C@]2(C(=O)N3)[C@H](C(=O)N3CCN(c4ncccn4)CC3)[C@H]3C(=O)O[C@H](c4ccccc4)[C@H](c4ccccc4)N3[C@@H]2c2ccc(O)cc2)cc1 and report it. 1.05

Find the recorded composite z-score belonging to O=C1C[C@@](C(=O)O)(c2ccc([N+](=O)[O-])cc2)[C@@H](c2ccc(CO)cc2I)N1C1CCCCC1 and report it. 1.15

Find the recorded composite z-score belonging to O=C1OCCC=C[C@H]2OC34C=CCN(c5ccc6ccccc6c5)C(=O)[C@H]3N(CCCCCCO)C(=O)[C@@H]4C12 (some centres undefined) and report it. -1.01

Find the recorded composite z-score belonging to C=CCC(OC(C)=O)[C@@H]1[C@@H](N(Cc2cc3ccccc3o2)C(=O)c2cccc3ccccc23)c2cc(OCCCO)ccc2N1C(=O)Cc1ccc2ccccc2c1 (some centres undefined) and report it. 0.106

Find the recorded composite z-score belonging to [N-]=[N+]=NCc1ccccc1C[C@]1(C(=O)N2CCOCC2)N=C(c2ccc(OCCCO)cc2)O[C@H]1c1ccccc1 and report it. 1.07
